Where these numbers come from: paper PMC12592139

TEST SYSTEM: hNav1.5 (Homo sapiens)
ASSAY NOTES: Automated patch-clamp (QPatch) on hNav1.5 (peak sodium current)
pIC50: −log10 of the molar value.

COMPOUND	TEST SYSTEM	pIC50
CN1CCN(C2=Nc3cc(Cl)ccc3Nc3ccccc32)CC1	hNav1.5 (Homo sapiens)	4.64
CN(C)C(=O)C(CCN1CCC(O)(c2ccc(Cl)cc2)CC1)(c1ccccc1)c1ccccc1 [SA2089, Loperamide]	hNav1.5 (Homo sapiens)	5.68
CCN(CCO)CCCC(C)Nc1ccnc2cc(Cl)ccc12 (stereo not shown) [SA1068, Hydroxychloroquine]	hNav1.5 (Homo sapiens)	4.05
C=C(C)[C@@H]1CCC(C)=C[C@H]1c1c(O)cc(CCCCC)cc1O	hNav1.5 (Homo sapiens)	4.55

###

TEST SYSTEM: hKv4.3 (Homo sapiens, UniProt Q9UK17)
Construct: expressed in transfected cells
Sequence (Q9UK17 whole entry): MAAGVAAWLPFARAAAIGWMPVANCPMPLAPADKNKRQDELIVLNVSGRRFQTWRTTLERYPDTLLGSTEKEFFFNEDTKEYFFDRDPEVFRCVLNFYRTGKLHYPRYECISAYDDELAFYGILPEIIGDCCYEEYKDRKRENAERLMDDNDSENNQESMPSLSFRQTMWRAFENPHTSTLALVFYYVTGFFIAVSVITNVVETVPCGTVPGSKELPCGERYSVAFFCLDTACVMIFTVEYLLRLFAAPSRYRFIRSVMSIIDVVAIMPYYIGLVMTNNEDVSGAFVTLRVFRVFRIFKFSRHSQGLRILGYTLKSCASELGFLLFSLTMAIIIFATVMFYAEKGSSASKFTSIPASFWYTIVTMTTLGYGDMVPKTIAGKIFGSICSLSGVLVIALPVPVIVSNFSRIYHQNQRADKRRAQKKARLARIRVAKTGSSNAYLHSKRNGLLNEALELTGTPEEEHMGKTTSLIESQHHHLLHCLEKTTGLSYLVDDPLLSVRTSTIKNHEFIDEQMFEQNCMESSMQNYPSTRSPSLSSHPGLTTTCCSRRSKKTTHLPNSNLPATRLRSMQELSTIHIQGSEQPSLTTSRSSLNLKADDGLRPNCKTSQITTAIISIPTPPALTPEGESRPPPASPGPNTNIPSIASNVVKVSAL
ASSAY NOTES: Automated patch-clamp (QPatch) on hKv4.3
Type: cell-based
RECORDED CONDITIONS: automated patch-clamp, 21 °C; IC50 not achieved taken at maximum concentration or estimated with Hill coefficient 1; read-out: Kv4.3 IC50
ATTRIBUTE MEASURED: IC50

COMPOUND	TEST SYSTEM	ATTRIBUTE MEASURED	MEAS VALUE
CN1CCN(C2=Nc3cc(Cl)ccc3Nc3ccccc32)CC1 [SA5332, Clozapine]	hKv4.3 (Homo sapiens, UniProt Q9UK17)	IC50	61.7 µM

###

Reported pIC50 values follow for various molecules
TEST SYSTEM: hNCX1 (Homo sapiens)
ASSAY NOTES: Cell-based calcium mobilization assay on CHO cell lines expressing NCX1
RECORDED CONDITIONS: CHO cells, calcium mobilization, Fluo4-AM
pIC50: −log10 of the molar value.

MOLECULE	BOUND TYPE	pIC50
C=C(C)[C@@H]1CCC(C)=C[C@H]1c1c(O)cc(CCCCC)cc1O	=	4.72
CCN(CCO)CCCC(C)Nc1ccnc2cc(Cl)ccc12 (centres unmarked) [SA1068, Hydroxychloroquine]	<	4.52

###

TEST SYSTEM: hERG channel (Homo sapiens, UniProt Q12809)
ASSAY NOTES: Automated patch-clamp (QPatch) on hERG channel
pIC50: −log10 of the molar value.

COMPOUND	TEST SYSTEM	BOUND TYPE	pIC50
C=C(C)[C@@H]1CCC(C)=C[C@H]1c1c(O)cc(CCCCC)cc1O	hERG channel (Homo sapiens, UniProt Q12809)	=	4.66
C[C@@H]1OCC2(CCN(c3cnc(Sc4ccnc(N)c4Cl)c(N)n3)CC2)[C@@H]1N	hERG channel (Homo sapiens, UniProt Q12809)	=	5.10
[H]/N=C(\N/C(=N/[H])Nc1ccc(Cl)cc1)NC(C)C	hERG channel (Homo sapiens, UniProt Q12809)	<	4.52
CCN(CCO)CCCC(C)Nc1ccnc2cc(Cl)ccc12 (centres unmarked) [SA1068, Hydroxychloroquine]	hERG channel (Homo sapiens, UniProt Q12809)	=	5.15
CC(CCc1ccc(O)cc1)NCCc1ccc(O)c(O)c1 (centres unmarked)	hERG channel (Homo sapiens, UniProt Q12809)	=	4.66

###

TEST SYSTEM: hCav1.2 (Homo sapiens)
Sequence (Q13936 whole entry): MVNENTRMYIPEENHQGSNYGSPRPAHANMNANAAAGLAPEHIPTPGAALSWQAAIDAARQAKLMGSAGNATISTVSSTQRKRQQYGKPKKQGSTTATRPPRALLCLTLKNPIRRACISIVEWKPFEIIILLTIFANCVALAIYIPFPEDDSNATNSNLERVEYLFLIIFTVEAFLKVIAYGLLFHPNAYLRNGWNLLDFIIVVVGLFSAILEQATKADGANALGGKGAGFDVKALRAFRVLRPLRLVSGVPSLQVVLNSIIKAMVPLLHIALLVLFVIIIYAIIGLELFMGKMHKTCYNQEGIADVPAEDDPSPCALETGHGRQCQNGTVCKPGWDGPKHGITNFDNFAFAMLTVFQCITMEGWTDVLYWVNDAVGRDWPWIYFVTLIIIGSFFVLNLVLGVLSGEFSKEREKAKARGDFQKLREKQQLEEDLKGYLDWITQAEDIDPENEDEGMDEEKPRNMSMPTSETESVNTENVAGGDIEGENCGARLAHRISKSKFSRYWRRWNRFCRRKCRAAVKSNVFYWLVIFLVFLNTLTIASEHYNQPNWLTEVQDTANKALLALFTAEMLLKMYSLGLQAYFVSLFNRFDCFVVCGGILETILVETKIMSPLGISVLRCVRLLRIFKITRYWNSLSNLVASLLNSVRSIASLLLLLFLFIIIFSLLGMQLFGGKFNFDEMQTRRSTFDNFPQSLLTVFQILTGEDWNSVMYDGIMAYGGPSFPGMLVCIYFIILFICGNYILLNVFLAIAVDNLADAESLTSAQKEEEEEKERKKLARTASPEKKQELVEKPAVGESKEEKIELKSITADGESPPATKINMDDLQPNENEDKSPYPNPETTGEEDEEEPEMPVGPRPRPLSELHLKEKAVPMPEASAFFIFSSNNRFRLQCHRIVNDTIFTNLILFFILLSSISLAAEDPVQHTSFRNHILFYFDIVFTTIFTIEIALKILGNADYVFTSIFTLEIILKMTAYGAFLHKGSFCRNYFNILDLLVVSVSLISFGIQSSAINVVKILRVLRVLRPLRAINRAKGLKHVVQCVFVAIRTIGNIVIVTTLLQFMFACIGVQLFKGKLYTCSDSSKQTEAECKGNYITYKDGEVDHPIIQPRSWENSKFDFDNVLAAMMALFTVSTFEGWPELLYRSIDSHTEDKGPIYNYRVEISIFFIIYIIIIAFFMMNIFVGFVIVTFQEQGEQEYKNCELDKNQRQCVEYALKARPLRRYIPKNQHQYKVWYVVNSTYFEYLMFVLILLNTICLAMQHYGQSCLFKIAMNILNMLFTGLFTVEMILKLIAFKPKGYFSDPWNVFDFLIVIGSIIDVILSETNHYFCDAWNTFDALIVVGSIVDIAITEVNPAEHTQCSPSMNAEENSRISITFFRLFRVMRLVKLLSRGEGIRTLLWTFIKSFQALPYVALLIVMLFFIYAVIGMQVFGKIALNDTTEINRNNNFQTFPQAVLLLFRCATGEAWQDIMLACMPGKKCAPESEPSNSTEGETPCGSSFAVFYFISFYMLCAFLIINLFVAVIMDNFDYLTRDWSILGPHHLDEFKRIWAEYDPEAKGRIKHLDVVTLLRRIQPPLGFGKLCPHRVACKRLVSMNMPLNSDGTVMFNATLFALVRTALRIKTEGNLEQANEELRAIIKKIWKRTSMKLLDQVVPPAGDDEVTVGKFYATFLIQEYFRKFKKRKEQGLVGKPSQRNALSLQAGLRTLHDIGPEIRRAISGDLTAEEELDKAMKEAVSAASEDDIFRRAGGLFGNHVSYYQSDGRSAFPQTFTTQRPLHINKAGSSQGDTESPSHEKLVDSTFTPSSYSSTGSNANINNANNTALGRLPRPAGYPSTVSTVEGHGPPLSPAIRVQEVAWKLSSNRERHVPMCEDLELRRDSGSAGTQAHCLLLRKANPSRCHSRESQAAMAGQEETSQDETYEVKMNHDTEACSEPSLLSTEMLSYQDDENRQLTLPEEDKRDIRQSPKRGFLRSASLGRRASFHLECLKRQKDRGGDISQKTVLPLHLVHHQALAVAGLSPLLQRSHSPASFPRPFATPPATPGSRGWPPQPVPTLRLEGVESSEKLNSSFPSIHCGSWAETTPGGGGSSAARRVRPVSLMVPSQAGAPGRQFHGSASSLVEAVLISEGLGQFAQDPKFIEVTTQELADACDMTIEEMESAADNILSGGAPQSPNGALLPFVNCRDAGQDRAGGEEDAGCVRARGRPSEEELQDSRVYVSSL
Sequence (Q08289 whole entry partner): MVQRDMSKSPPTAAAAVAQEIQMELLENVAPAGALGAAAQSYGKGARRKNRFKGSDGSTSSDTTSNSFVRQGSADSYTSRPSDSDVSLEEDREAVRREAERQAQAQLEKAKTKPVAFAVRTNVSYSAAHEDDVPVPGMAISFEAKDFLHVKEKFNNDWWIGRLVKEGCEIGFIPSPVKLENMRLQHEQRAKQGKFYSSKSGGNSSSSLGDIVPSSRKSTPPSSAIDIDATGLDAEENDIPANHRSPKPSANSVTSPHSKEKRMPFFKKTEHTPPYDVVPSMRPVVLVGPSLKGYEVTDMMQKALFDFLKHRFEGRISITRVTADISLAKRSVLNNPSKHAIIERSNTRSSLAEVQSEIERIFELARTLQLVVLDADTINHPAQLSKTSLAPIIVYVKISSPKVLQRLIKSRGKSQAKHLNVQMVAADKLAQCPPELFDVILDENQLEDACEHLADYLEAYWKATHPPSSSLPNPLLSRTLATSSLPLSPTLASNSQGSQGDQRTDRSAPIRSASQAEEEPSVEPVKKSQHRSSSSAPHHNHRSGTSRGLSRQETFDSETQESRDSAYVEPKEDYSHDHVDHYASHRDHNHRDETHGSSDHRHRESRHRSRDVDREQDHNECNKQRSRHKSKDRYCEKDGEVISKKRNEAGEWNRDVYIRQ
Sequence (P54289 25-956 partner limits assumed): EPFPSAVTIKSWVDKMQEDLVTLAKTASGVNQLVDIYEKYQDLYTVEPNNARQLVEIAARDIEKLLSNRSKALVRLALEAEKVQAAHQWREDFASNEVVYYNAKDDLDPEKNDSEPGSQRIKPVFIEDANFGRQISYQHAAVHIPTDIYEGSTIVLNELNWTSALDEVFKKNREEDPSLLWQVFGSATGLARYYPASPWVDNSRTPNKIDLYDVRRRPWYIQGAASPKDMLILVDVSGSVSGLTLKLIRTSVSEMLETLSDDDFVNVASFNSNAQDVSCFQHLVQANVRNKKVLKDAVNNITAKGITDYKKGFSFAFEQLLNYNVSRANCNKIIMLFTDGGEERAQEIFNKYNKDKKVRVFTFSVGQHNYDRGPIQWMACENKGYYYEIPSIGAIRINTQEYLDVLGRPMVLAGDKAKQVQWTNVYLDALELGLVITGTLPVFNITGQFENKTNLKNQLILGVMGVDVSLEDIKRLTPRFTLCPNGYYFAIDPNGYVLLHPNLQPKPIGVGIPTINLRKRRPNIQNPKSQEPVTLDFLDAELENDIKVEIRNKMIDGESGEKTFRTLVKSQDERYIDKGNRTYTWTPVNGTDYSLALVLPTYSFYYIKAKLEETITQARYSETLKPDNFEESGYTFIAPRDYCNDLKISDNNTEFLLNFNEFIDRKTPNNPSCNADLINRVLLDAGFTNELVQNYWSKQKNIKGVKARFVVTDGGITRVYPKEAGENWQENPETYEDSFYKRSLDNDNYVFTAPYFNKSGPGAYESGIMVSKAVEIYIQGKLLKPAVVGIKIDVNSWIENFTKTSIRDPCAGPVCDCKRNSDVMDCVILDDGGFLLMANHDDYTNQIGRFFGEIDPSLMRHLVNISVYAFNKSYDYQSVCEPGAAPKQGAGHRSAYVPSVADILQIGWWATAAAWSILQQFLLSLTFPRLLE
Sequence (P54289 957-1103 partner limits assumed): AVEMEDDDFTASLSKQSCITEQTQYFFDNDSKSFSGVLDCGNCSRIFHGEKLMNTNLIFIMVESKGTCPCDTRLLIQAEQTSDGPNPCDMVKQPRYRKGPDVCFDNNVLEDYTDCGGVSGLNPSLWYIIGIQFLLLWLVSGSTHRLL
ASSAY NOTES: Automated patch-clamp (SyncroPatch) on hCav1.2
ATTRIBUTE MEASURED: IC50 (µM)

MOLECULE	MEAS VALUE
CCN(CCO)CCCC(C)Nc1ccnc2cc(Cl)ccc12 (stereo not drawn) [SA1068, Hydroxychloroquine]	7.6
CN(C)C(=O)C(CCN1CCC(O)(c2ccc(Cl)cc2)CC1)(c1ccccc1)c1ccccc1 [SA2089, Loperamide]	3.9
C=C(C)[C@@H]1CCC(C)=C[C@H]1c1c(O)cc(CCCCC)cc1O	11.8
